Assay: DNDI: Cytotoxicity in vitro, against rat skeletal myoblast (L-6) cells
Conditions: L-6 cells (skeletal myoblasts), IC50
# maps each entry to its pIC50
Hey, just a heads up that pIC50 is the negative log base 10 of the concentration in molar.

Solved cases below.
INSERT INTO assay_data (compound, recorded_metric, assay_result) VALUES
  ('CCN(Cc1cccnc1)c1cc(F)cc(-c2nc3ccccc3s2)c1', 'pIC50', 4.24),
  ('CCN(c1ccccc1)S(=O)(=O)c1ccc(Cl)c(NC(=O)CN(C)C2CCN(C)CC2)c1', 'pIC50', 4.29);

Reported pIC50 of "CCN(Cc1cccnc1)c1ccc(-c2ccc(F)cc2)cc1F" : 4.25

Kindly note the recorded pIC50 for "CC(=O)N(Cc1c[nH]cn1)c1ccc(-c2nc3ccccc3s2)cc1" , which is 4.20

Documented pIC50 of CCOC(COc1ccc2cc(Br)ccc2c1)Cn1ccnc1.O=CO (stereo not given) : 4.35

pIC50 in this record for OC(COc1ccc2cc(Br)ccc2c1)Cn1ccnc1 (stereo not given) : 4.18

---

Assay: in vitro
Conditions: mouse, microsomes
RECORDED_METRIC: half-life (min)
Give your result in min as a bare value.

Below are worked cases with known answers.
INSERT INTO assay_data (molecule, display_unit, assay_result) VALUES
  ('CO/N=C(\C)c1ccc(-n2ccnc2)c(NC(=O)c2cnc(-c3ccccc3)nc2)c1', 'min', 52),
  ('CO/N=C(\C)c1ccc(-n2ccnc2)c(NC(=O)c2ccc(-c3ccccc3)nc2)c1', 'min', 53),
  ('CO/N=C(\C)c1ccc(-n2ccnc2)c(NC(=O)c2cnn(-c3ccccn3)c2)c1', 'min', 21);

Reported half-life for "CO/N=C(\C)c1ccc(-n2ccnc2)c(NC(=O)c2ccc(-c3ccccc3)cc2)c1" was 56

Consider "N#Cc1ccc(-n2ccnc2)c(NC(=O)c2cnc(-c3ccccc3)s2)c1" . Its measured half-life is 56

half-life reported for this molecule "CO/N=C(\C)c1ccc(-n2ccnc2)c(NC(=O)c2cnc(-c3ccccc3)cn2)c1" : 61

Given item "CO/N=C(\C)c1ccc(-n2ccnc2)c(NC(=O)c2cnc(-c3ccccn3)s2)c1" , the value recorded as its half-life is 23

Value of measured half-life for the entry "CC(=O)N(Cc1c[nH]cn1)c1ccc(-c2nc3ccccc3s2)cc1" : 81

---

Reported fraction unbound is given for each of the following molecules.
Assay: DNDI: Protein binding in mouse plasma
Respond with the number and no other words.

Known results for molecules:
INSERT INTO results (molecule, recorded_metric, assay_result) VALUES
  ('CO/N=C(\C)c1ccc(-n2ccnc2)c(NC(=O)c2cnn(-c3ccccn3)c2)c1', 'fraction unbound', 0.022),
  ('N#Cc1ccc(-n2ccnc2)c(NC(=O)c2cnc(-c3ccccc3)s2)c1', 'fraction unbound', 0.064);

fraction unbound recorded for this molecule, "CO/N=C(\C)c1ccc(-n2ccnc2)c(NC(=O)c2cnc(-c3ccccc3)nc2)c1" , is 0.028

---

Test: in vitro
Conditions: mouse, microsomes
RECORDED_METRIC: microsomal CLint (µL/min/mg)
Form entry: value (µL/min/mg) — number only.

Guide cases for microsomal CLint, answers given:
INSERT INTO measurements (molecule, assay_result) VALUES
  ('CO/N=C(\C)c1ccc(-n2ccnc2)c(NC(=O)c2ccc(-c3ccccc3)cc2)c1', 31),
  ('CO/N=C(\C)c1ccc(-n2ccnc2)c(NC(=O)c2cnn(-c3ccccn3)c2)c1', 83),
  ('CO/N=C(\C)c1ccc(-n2ccnc2)c(NC(=O)c2cnc(-c3ccccn3)s2)c1', 75);

Lookup result for "CC(=O)N(Cc1c[nH]cn1)c1ccc(-c2nc3ccccc3s2)cc1" ; measured microsomal CLint: 21

"N#Cc1ccc(-n2ccnc2)c(NC(=O)c2cnc(-c3ccccc3)s2)c1" has a reported microsomal CLint of 31

---

Target: CYP3A4 (Homo sapiens, UniProt P08684)
Experiment: DNDI: Human CYP3A4 inhibition at 10 uM determined using 6b-hydroxylation of testosterone
Conditions: probe testosterone (6b-hydroxylation)
Readings of inhibition at 10 µM for the listed compounds
Number only, in %; omit the unit.

INSERT INTO assay_data (compound, target_under_test, recorded_metric, assay_result) VALUES
  ('CCN(Cc1c[nH]cn1)c1ccc(-c2nc3ccccc3s2)cc1', 'CYP3A4 (Homo sapiens, UniProt P08684)', 'inhibition at 10 µM', 80),
  ('CN(CC(O)COc1ccc2cc(Br)ccc2c1)C1CCCCC1 (centres undefined)', 'CYP3A4 (Homo sapiens, UniProt P08684)', 'inhibition at 10 µM', 11),
  ('CS(=O)(=O)N(Cc1cnc[nH]1)c1ccc(-c2nc3ccccc3s2)cc1', 'CYP3A4 (Homo sapiens, UniProt P08684)', 'inhibition at 10 µM', 85);

# inhibition at 10 µM of "CS(=O)(=O)N(Cc1c[nH]cn1)c1ccc(-c2ccc(F)cc2)cc1F" = 86.1

---

Experiment: in vitro
Details: human, microsomes
Reported microsomal CLint is given for each of the following molecules.
Express the result in µL/min/mg but write the number alone.

Below are worked cases with known answers.
INSERT INTO assay_data (molecule, assay_result) VALUES
  ('CS(=O)(=O)N(Cc1c[nH]cn1)c1ccc(-c2ccc(F)cc2)cc1F', 28),
  ('CO/N=C(\C)c1ccc(-n2ccnc2)c(NC(=O)c2ccc(-c3ccccc3)nc2)c1', 26);

Query molecule follows.
Entry under test: CCOC(COc1ccc2cc(Br)ccc2c1)Cn1ccnc1.O=CO (stereo not drawn) . Its microsomal CLint was 14

---

System: Trypanosoma brucei rhodesiense
Assay: DNDI: HAT in Vitro
Assay type: functional, organism-based, ATCC 30027
Conditions: Trypanosoma brucei, ATCC 30027
RECORDED_METRIC: IC50

Previously resolved entries follow.
INSERT INTO results (compound, assay_result) VALUES
  ('N#Cc1ccc(-n2ccnc2)c(NC(=O)c2cnc(-c3ccccc3)s2)c1', '> 10 µM'),
  ('CCN(Cc1cccnc1)c1cccc(-c2nc3ccccc3s2)c1', '> 10 µM');

// next entry
For this compound ( OC(COc1ccc2cc(Br)ccc2c1)Cn1ccnc1 (stereo not drawn) ), measured IC50 is > 10 µM

---

Assay: DNDI: Lipophilicity (gLogD) at pH 3
Settings: buffer, pH 3, logD
chromatographic logD: recorded values
Answer with a bare number; do not write a unit.

INSERT INTO measurements (molecule, assay_result) VALUES
  ('N#Cc1ccc(-n2ccnc2)c(NC(=O)c2cnc(-c3ccccc3)s2)c1', 2.1),
  ('CC(=O)N(Cc1c[nH]cn1)c1ccc(-c2nc3ccccc3s2)cc1', 1.6),
  ('CO/N=C(\C)c1ccc(-n2ccnc2)c(NC(=O)c2ccc(-c3ccccn3)s2)c1', 2.3),
  ('CS(=O)(=O)N(Cc1c[nH]cn1)c1ccc(-c2ccc(F)cc2)cc1F', 1.6),
  ('CN(C)S(=O)(=O)c1ccc(-n2ccnc2)c(NC(=O)c2cnc(-c3ccccc3)s2)c1', 2.4);

Next:
The compound identified as "CCN(Cc1cccnc1)c1cc(F)cc(-c2nc3ccccc3s2)c1" registered its chromatographic logD at 3.75

---

Assay: DNDI: Solubility in phosphate buffer at pH 6.5 determined by nephelometry
Settings: phosphate buffer, pH 6.5, Kinetic
Catalogue of solubility kinetic values

// worked examples, solubility kinetic included
INSERT INTO assay_data (molecule, assay_result) VALUES
  ('CO/N=C(\C)c1ccc(-n2ccnc2)c(NC(=O)c2ccc(-c3ccccc3)cc2)c1', '< 1.6 µg/mL'),
  ('CN(CC(O)COc1ccc2cc(Br)ccc2c1)C1CCCCC1 (stereo not given)', '> 100 µg/mL'),
  ('CO/N=C(\C)c1ccc(-n2ccnc2)c(NC(=O)c2cnc(-c3ccccc3)cn2)c1', '< 1.6 µg/mL');

Lab note: CC(C)N(C)CC(O)COc1ccc2cc(Br)ccc2c1 (stereo not given) gave solubility kinetic of > 100 µg/mL

---

Target: Cytochrome P450 3A4 (Homo sapiens)
Sequence (P08684 whole entry): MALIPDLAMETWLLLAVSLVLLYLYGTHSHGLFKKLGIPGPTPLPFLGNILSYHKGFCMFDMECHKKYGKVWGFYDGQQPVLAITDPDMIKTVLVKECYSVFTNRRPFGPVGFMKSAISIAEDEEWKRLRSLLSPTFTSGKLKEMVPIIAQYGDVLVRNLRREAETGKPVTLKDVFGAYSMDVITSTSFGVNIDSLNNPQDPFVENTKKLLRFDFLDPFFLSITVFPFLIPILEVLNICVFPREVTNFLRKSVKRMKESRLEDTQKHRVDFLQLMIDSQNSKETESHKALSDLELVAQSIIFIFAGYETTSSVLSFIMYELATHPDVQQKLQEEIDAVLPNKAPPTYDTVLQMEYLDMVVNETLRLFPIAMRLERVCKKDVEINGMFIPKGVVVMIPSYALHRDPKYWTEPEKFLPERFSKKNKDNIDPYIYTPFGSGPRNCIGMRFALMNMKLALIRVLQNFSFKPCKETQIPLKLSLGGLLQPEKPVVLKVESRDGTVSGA
Assay: DNDI: Human CYP3A4 inhibition determined using 6b-hydroxylation of testosterone
pIC50: −log10 of the molar value.
RECORDED_METRIC: pIC50

# count of solved cases: 3
INSERT INTO assay_data (compound, assay_result) VALUES
  ('CCS(=O)(=O)N(Cc1cccnc1)c1cccc(-c2nc3ccccc3s2)c1', '> 6.60'),
  ('CCOC(=O)c1ccc(-n2ccnc2)c(NC(=O)c2cnc(-c3ccccc3)nc2)c1', '< 4.70'),
  ('CCOC(COc1ccc2cc(Br)ccc2c1)Cn1ccnc1.O=CO (centres undefined)', '> 6.60');

// next entry
Lab note: measured pIC50 of "CO/N=C(\C)c1ccc(-n2ccnc2)c(NC(=O)c2cncc(-c3ccccc3)n2)c1" was > 6.00

---

Tested on: Trypanosoma cruzi
Experiment: DNDI: Chagas in Vitro
Format: functional, organism-based, Tulahuen C4 (LacZ)
Settings: Trypanosoma cruzi, Tulahuen C4 (LacZ)
// reported IC50 per item

Reference set (4 entries):
INSERT INTO results (compound, target_under_test, recorded_metric, assay_result) VALUES
  ('CC(C)N(C)CC(O)COc1ccc2cc(Br)ccc2c1 (stereo not given)', 'Trypanosoma cruzi', 'IC50', '> 10000 nM'),
  ('CC(C)Cc1ccc(-n2ccnc2)c(NC(=O)c2cnc(-c3ccccc3)s2)c1', 'Trypanosoma cruzi', 'IC50', '< 0.14 nM'),
  ('O=C(Nc1cc(C(F)(F)F)ccc1-n1ccnc1)c1cnc(-c2ccccc2)nc1', 'Trypanosoma cruzi', 'IC50', '> 100 nM'),
  ('CCN(c1ccccc1)S(=O)(=O)c1ccc(Cl)c(NC(=O)CNC2CCCN(C)C2)c1.O=CO (stereo not given)', 'Trypanosoma cruzi', 'IC50', '> 1000 nM');

// moving on: another record for IC50
"N#Cc1ccc(-n2ccnc2)c(NC(=O)c2cnc(-c3ccccc3)nc2)c1" has a reported IC50 of > 100 nM
